Where these numbers come from: ChEMBL document CHEMBL1125820

Condition Label: octanol/water
Recorded Metric: logP
Number only, no unit.

Output measured logP for this item: `O=[N+]([O-])c1cccc2c([N+](=O)[O-])cccc12`
2.58

----------
logP values by entry
Assay Details: Partition coefficient (logP)
Condition Label: octanol/water
Number only, no unit.

# Molecule, Recorded Metric, Reported
rows = [
    ("O=[N+]([O-])c1ccc2c(c1)Cc1cc(F)ccc1-2", "logP", 4.11),
    ("Cc1ccc2c(c1)Cc1cc([N+](=O)[O-])ccc1-2", "logP", 4.62),
    ("CC(=O)c1ccc([N+](=O)[O-])cc1", "logP", 1.53),
    ("O=[N+]([O-])c1ccc2c(c1)NCC2", "logP", 1.92),
    ("O=[N+]([O-])c1c(Cl)c(Cl)c2c(c1Cl)Oc1cc(Cl)c(Cl)cc1O2", "logP", 7.84),
    ("O=C1c2cc([N+](=O)[O-])ccc2-c2ccc([N+](=O)[O-])cc21", "logP", 2.84),
    ("Nc1ccc(-c2cccc([N+](=O)[O-])c2)cc1", "logP", 2.68),
    ("O=[N+]([O-])c1c2ccccc2c2ccc3cccc4ccc1c2c43", "logP", 5.87),
]

Output measured logP for this item: `O=[N+]([O-])c1cc([N+](=O)[O-])c2c3c(c4cccc5ccc1c2c54)CCCC3`
6.01

Output measured logP for this item: O=[N+]([O-])C1=CC=CC2Nc3cccc([N+](=O)[O-])c3NC12 (stereo unspecified)
2.29

Output measured logP for this item: `O=[N+]([O-])c1cc2c3c(c1)CCc1cc([N+](=O)[O-])cc(c1-3)CC2`
5.02

----------
Assay Details: Partition coefficient (logP)
Condition Label: octanol/water
logP strictly under 3 means TRUE; at 3 or over means FALSE.

# Structure, Class
measured = [
    ("O=[N+]([O-])c1ccc2c(c1)CC=C2", "TRUE"),
    ("N#Cc1ccc2c(c1)Cc1cc([N+](=O)[O-])ccc1-2", "FALSE"),
]

Quick check: does `O=C(/C=C/c1ccc([N+](=O)[O-])cc1)c1ccc([N+](=O)[O-])cc1` have logP under 3?
TRUE

Quick check: does `O=[N+]([O-])c1cc2c3c(cc([N+](=O)[O-])cc3c1)-c1ccccc1-2` have logP under 3?
FALSE

Quick check: does `O=[N+]([O-])c1cccc2cnccc12` have logP under 3?
TRUE

----------
Assay Details: Partition coefficient (logP)
Condition Label: octanol/water
Recorded Metric: logP
Number only, no unit.

Answered cases to consult:
# Compound, Reported
measured = [
    ("O=[N+]([O-])c1ccc2[nH]ccc2c1", 2.13),
    ("O=C1NCCN1c1ncc([N+](=O)[O-])s1", 0.95),
    ("O=[N+]([O-])c1ccc2[nH]c3ccccc3c2c1", 3.51),
    ("O=[N+]([O-])C1=CC2Nc3ccc([N+](=O)[O-])cc3NC2C=C1 (centres undefined)", 2.29),
    ("O=[N+]([O-])c1ccc(Cl)c([N+](=O)[O-])c1", 2.17),
    ("Nc1ccc(Cl)cc1[N+](=O)[O-]", 2.72),
    ("O=[N+]([O-])c1ccccc1F", 1.69),
    ("O=[N+]([O-])c1ccc2c(c1)Oc1cc(Cl)c(Cl)cc1O2", 6.24),
]

Now look at this entry.
Output measured logP for this item: `O=[N+]([O-])c1ccc2c3c([N+](=O)[O-])ccc4ccc5ccc6ccc1c2c6c5c43`
6.07
